- PROTOCOL_DESCRIPTION: PK in dog
- PROTOCOL_CONDITIONS: in vivo, IV 2 mg/kg
READOUT_TYPE: clearance (mL/min/kg)
Output spec: scalar in mL/min/kg, unitless text.

QUERY: Indicate the recorded clearance value for this compound: CCC(C)(C)C(=O)N(O)Cc1cc(F)cc(F)c1 [Compound 13]
RESULT: 18.5

---

- PROTOCOL_DESCRIPTION: PK in dog
- PROTOCOL_CONDITIONS: in vivo, PO 10 mg/kg
READOUT_TYPE: Cmax (ng/mL)
Output spec: scalar in ng/mL, unitless text.

# example entries with known answers
{"columns": ["COMPOUND", "Cmax [ng/mL]"],
 "data": [
  ["CCC(C)(C)C(=O)N(O)Cc1cc(F)cc(F)c1", 981],
  ["CCC(C)(C)C(=O)N(O)Cc1ccccc1 [Compound 92, reference compound]", 171]
]}

Okay, next one:
QUERY: Indicate the recorded Cmax value for this compound: CCC(C)(C)C(=O)N(O)Cc1ccc(F)cc1
RESULT: 195

---

- PROTOCOL_DESCRIPTION: PK in dog
- PROTOCOL_CONDITIONS: in vivo, PO 10 mg/kg
READOUT_TYPE: AUC(0-inf)

# example entries with known answers
{"columns": ["COMPOUND", "AUC(0-inf)"],
 "data": [
  ["CCC(C)(C)C(=O)N(O)Cc1ccccc1 [Compound 92, reference compound]", "136 ng·h/mL"],
  ["CCC(C)(C)C(=O)N(O)Cc1cc(F)cc(F)c1", "1320 ng·h/mL"]
]}

Okay, next one:
QUERY: Indicate the recorded AUC(0-inf) value for this compound: CCC(C)(C)C(=O)N(O)Cc1ccc(F)cc1
RESULT: 148 ng·h/mL

---

- Tested on: necrosis
- PROTOCOL_DESCRIPTION: Necrosis inhibitory activity (cell necrosis / cell viability assay)
- Type: cell-based
- PROTOCOL_CONDITIONS: Necrosis Inhibitory Activity, given as range; read-out: EC50
pEC50: −log10 of the molar value.
READOUT_TYPE: pEC50

{"columns": ["COMPOUND", "pEC50"],
 "data": [
  ["CCC(C)(C)C(=O)N(O)Cc1cccc(Cl)c1 [Compound 4]", "6.00 to 9.00"],
  ["[2H]c1c([2H])c([2H])c(C([2H])([2H])N(O)C(=O)C(C)(C)CC)c([2H])c1[2H] [Compound 30]", "6.00 to 9.00"],
  ["O=C(C1CCN(c2ncc(F)cn2)CC1)N(O)Cc1cc(F)cc(F)c1 [Compound 86]", "6.00 to 9.00"],
  ["CCC(C)(C)C(=O)N(O)Cc1cc(F)ccc1F [Compound 14]", "6.00 to 9.00"],
  ["O=C(C1CCN(c2ncc(F)cn2)CC1)N(O)Cc1ccc(F)cc1 [Compound 85]", "5.00 to 6.00"],
  ["CC(C)(C(=O)N(O)Cc1ccc(Br)cc1)C(F)(F)F [Compound 42]", "6.00 to 9.00"]
]}

QUERY: Indicate the recorded pEC50 value for this compound: CCC(C)(C)C(=O)N(O)Cc1ccsc1 [Compound 23]
RESULT: 6.00 to 9.00

QUERY: Indicate the recorded pEC50 value for this compound: CCC(C)(C)C(=O)N(O)Cc1cc(F)cc(C#N)c1 [Compound 12]
RESULT: 6.00 to 9.00

QUERY: Indicate the recorded pEC50 value for this compound: CCC(C)(C)C(=O)N(O)Cc1c(F)c(F)c(F)c(F)c1F [Compound 11]
RESULT: 5.00 to 6.00

QUERY: Indicate the recorded pEC50 value for this compound: CCC(C)(C)C(=O)N(O)Cc1ccc(Br)cc1 [Compound 18]
RESULT: 6.00 to 9.00

QUERY: Indicate the recorded pEC50 value for this compound: CCC(C)(C)C(=O)N(O)Cc1ccc2c(c1)CCC2 [Compound 20]
RESULT: 6.00 to 9.00

---

Measured half-life of individual entries
- PROTOCOL_DESCRIPTION: Liver microsome stability, monkey
- Format: in vitro ADME
- PROTOCOL_CONDITIONS: monkey, liver microsomes, liver microsome stability; read-out: Monkey T1/2
Output spec: scalar in min, unitless text.

# example entries with known answers
{"columns": ["MOLECULE", "RESULT_VALUE"],
 "data": [
  ["[2H]C([2H])C([2H])([2H])C(C)(C)C(=O)N(O)Cc1ccccc1", 3.3],
  ["[2H]CC([2H])C(C)(C)C(=O)N(O)Cc1cc(F)cc(F)c1 (stereo not shown)", 4.97],
  ["[2H]CC([2H])C(C)(C)C(=O)N(O)Cc1ccccc1 (stereo not shown)", 0.6]
]}

Okay, next one:
QUERY: Indicate the recorded half-life value for this molecule: CCC(C)(C)C(=O)N(O)Cc1cc(F)cc(F)c1
RESULT: 4.72
